Biological target: NUAK1 (human) (UniProt O60285)
Sequence (O60285 whole entry, looked up): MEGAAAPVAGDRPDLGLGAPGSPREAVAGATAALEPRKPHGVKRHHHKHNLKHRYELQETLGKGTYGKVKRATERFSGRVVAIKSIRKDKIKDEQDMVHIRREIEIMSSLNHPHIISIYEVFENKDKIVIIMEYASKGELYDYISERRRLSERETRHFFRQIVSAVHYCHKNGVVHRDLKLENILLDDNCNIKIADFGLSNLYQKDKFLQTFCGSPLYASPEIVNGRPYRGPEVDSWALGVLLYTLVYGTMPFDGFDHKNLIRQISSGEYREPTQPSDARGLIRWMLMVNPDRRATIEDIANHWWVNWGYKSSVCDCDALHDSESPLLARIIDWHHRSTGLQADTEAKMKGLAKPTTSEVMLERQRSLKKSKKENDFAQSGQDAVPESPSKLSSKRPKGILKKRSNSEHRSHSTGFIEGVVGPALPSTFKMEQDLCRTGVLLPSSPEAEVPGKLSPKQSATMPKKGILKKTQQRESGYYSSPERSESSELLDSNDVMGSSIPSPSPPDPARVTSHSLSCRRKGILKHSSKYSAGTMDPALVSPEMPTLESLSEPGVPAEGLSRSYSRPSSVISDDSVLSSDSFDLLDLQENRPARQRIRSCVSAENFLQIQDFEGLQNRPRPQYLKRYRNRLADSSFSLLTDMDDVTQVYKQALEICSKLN
Assay: radiometric filter-binding kinase assay, Kinase HotSpot
Settings: compound 0.5 µM; ATP 10 µM
MEASUREMENT KIND: residual activity (%)

INSERT INTO assay_data (compound, target_entity, meas_value) VALUES
  ('Nc1ccc2ncnc(NCCc3ccc(Oc4ccccc4)cc3)c2c1', 'NUAK1 (human) (UniProt O60285)', 94.7),
  ('CNC(=O)c1cc(Oc2ccc(NC(=O)Nc3ccc(Cl)c(C(F)(F)F)c3)cc2)ccn1', 'NUAK1 (human) (UniProt O60285)', 103),
  ('O=C1NC(=O)C(c2cn(CCCn3ccnc3)c3ccccc23)=C1Nc1ccccc1', 'NUAK1 (human) (UniProt O60285)', 70.6),
  ('CC(=O)c1ccc(N2CCOCC2)cc1O', 'NUAK1 (human) (UniProt O60285)', 92.8),
  ('CCN(CC)CCNC(=O)c1c(C)[nH]c(/C=C2\C(=O)Nc3ccc(Cl)cc32)c1C', 'NUAK1 (human) (UniProt O60285)', 2.06),
  ('COc1ccc(COc2ccc(Cc3cnc(N)nc3N)cc2OC)cc1', 'NUAK1 (human) (UniProt O60285)', 106),
  ('CCN(CC)CCNC(=O)c1c(C)[nH]c(/C=C2\C(=O)Nc3ccc(F)cc32)c1C', 'NUAK1 (human) (UniProt O60285)', 2.75),
  ('CCOC(=O)c1c(C)[nH]c(/C=C2\C(=O)Nc3ccccc32)c1C', 'NUAK1 (human) (UniProt O60285)', 62.3),
  ('c1ccc(-c2n[nH]c3c2oc2ccccc23)cc1', 'NUAK1 (human) (UniProt O60285)', 96.2),
  ('Nc1ncnc2[nH]nc(Nc3ccc(F)cc3)c12', 'NUAK1 (human) (UniProt O60285)', 95.5),
  ('CO[C@H]1CC2CC[C@@H](C)[C@@](O)(O2)C(=O)C(=O)N2CCCC[C@H]2C(=O)OC([C@H](C)C[C@@H]2CC[C@@H](O)[C@H](OC)C2)CC(=O)[C@H](C)/C=C(\C)[C@@H](O)[C@@H](OC)C(=O)[C@H](C)C[C@H](C)/C=C/C=C/C=C/1C (some centres undefined)', 'NUAK1 (human) (UniProt O60285)', 101),
  ('Cc1ccc(NC2=CC(=O)c3sc(C)nc3C2=O)cc1', 'NUAK1 (human) (UniProt O60285)', 93),
  ('CC(C)N(CCC(=O)c1ccc2ccccc2c1)Cc1ccccc1', 'NUAK1 (human) (UniProt O60285)', 97.1),
  ('N#CC(C#N)=C(N)/C(C#N)=C/c1ccc(O)cc1', 'NUAK1 (human) (UniProt O60285)', 92.3);

---

residual activity for assorted compounds
Target: UniProtKB P16234
Sequence (P16234 whole entry, looked up): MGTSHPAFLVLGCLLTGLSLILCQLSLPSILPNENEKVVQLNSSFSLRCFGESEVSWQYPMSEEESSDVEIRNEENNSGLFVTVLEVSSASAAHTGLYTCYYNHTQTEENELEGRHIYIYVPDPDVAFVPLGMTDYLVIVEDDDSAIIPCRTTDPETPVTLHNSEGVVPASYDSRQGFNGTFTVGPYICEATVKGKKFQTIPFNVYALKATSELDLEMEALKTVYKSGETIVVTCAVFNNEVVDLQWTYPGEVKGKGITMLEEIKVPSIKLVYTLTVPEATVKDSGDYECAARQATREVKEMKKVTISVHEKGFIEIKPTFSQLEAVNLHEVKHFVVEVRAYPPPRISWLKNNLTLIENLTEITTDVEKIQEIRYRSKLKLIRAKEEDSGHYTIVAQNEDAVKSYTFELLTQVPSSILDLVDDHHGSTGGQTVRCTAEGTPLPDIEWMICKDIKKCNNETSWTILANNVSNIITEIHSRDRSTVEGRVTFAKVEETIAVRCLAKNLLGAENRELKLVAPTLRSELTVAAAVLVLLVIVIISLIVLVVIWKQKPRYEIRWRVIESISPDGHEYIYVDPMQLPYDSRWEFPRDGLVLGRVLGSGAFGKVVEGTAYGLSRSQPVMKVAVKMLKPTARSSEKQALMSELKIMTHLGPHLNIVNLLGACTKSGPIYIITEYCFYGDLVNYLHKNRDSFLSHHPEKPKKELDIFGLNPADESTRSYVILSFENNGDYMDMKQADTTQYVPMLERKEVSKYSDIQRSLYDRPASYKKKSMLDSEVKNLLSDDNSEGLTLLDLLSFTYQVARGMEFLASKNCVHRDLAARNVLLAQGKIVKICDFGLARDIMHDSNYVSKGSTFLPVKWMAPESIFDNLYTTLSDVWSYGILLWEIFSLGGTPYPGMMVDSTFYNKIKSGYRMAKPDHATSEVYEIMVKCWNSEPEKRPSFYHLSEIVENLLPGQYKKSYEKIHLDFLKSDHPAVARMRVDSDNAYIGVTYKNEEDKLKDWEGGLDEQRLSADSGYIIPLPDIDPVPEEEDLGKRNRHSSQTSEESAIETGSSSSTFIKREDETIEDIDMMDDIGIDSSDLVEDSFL
Assay: radiometric filter-binding kinase assay, Kinase HotSpot
Conditions: compound 0.5 µM; ATP 10 µM
MEASUREMENT KIND: residual activity (%)

INSERT INTO assay_data (line_notation, readout_units, meas_value) VALUES
  ('Cc1ccc(Nc2nccc(N(C)c3ccc4c(C)n(C)nc4c3)n2)cc1S(N)(=O)=O', '%', 13.9),
  ('Nc1ccc2ncnc(NCCc3ccc(Oc4ccccc4)cc3)c2c1', '%', 98.5),
  ('O=C1NC(=O)C(c2cn(CCCn3ccnc3)c3ccccc23)=C1Nc1ccccc1', '%', 94.1),
  ('CC(=O)c1ccc(N2CCOCC2)cc1O', '%', 94.7),
  ('COc1ccc2c(c[n+](C)c3c4cc5c(cc4ccc23)OCO5)c1OC', '%', 101),
  ('CC#CC(=O)Nc1cc2c(Nc3ccc(F)c(Cl)c3)ncnc2cn1', '%', 94.9),
  ('O=C1NC(=O)c2c1c1c3ccccc3n3c1c1c2c2ccccc2n1C1CCC3O1', '%', 32.8),
  ('N#C/C(=C(/N)Sc1ccc(N)cc1)c1ccccc1C(F)(F)F', '%', 99.5),
  ('CC[n+]1c(/C=C/N(C)c2ccccc2)n(-c2ccccc2)c2ccc(-c3nc4ccccc4s3)cc21', '%', 95.2),
  ('CCC(=O)Nc1ccc2ncnc(Nc3cccc(Br)c3)c2c1', '%', 107),
  ('O=C1Nc2ccc(Cl)cc2/C1=C/c1cc(Cl)c(O)c(Cl)c1', '%', 70.3);
